target: human PDE2A1 (Homo sapiens (Human), UniProt O00408); test: PDE selectivity IMAP FP assay, human PDE2A1; assay type: biochemical; settings: Human PDE2; Lab B; read-out: Human PDE2 Ki (nM) Lab B
Sequence (O00408 other isoform, or with tags, fused parts or gaps): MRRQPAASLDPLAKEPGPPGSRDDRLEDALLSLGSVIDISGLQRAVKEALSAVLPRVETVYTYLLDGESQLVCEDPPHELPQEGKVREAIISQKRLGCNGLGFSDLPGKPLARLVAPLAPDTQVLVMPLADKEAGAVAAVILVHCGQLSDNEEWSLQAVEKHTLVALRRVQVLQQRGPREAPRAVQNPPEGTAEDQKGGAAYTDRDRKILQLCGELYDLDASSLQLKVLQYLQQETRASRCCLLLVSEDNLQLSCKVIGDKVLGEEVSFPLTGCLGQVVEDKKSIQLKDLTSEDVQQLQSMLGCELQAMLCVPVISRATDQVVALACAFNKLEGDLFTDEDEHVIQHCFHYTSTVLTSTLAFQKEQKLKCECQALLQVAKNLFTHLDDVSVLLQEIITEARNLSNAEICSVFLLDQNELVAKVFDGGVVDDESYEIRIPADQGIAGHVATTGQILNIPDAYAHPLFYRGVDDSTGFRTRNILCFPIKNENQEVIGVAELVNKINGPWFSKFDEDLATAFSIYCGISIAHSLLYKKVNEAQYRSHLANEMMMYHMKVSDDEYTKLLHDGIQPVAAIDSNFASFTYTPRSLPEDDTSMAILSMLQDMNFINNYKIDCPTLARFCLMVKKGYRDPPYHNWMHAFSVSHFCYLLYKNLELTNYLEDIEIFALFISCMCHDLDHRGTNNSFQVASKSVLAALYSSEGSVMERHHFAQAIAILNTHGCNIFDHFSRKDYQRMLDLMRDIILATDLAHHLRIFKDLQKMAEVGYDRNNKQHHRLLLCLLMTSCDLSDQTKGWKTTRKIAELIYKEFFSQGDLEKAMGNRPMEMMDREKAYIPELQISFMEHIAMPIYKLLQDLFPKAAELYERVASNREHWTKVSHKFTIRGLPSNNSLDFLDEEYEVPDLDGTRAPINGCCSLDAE
Below, each entry is listed alongside its reported Ki.

Solved cases (3 shown):
CCC(c1ccc(OC(F)F)cc1F)n1nc(CF)c2c(=O)[nH]c(N(C)C)nc21 (single isomer, unassigned) [Example 342] | 0.1 nM
CC(c1ccc(C(C)(F)F)cc1F)n1nc(CF)c2c(=O)[nH]c(N(C)C)nc21 (single isomer, unassigned) [Example 208] | 20 nM
C[C@@H](c1ccc(C(F)(F)F)cc1)n1nc(CO)c2c(=O)[nH]c(N3CCCC3)nc21 [Example 156] | 0.5 nM

Exercise: Query: Ki; subject: N#CCc1nn(C(c2ccc(C(F)(F)F)cc2)C2CC2)c2nc(O)[nH]c(=O)c12 (single isomer, unassigned) [Example 296]
Solution: 7.3 nM

Exercise: Query: Ki; subject: CCC(c1ccc(C(C)(F)F)cc1)n1nc(CF)c2c(=O)[nH]c(N(C)C)nc21 (single isomer, unassigned) [Example 205]
Solution: 0.038 nM

Exercise: Query: Ki; subject: CC(c1ccc(C(F)(F)C(F)(F)F)cc1)n1nc(CO)c2c(=O)[nH]c(O)nc21 (single isomer, unassigned) [Example 32]
Solution: ~1900 nM

Exercise: Query: Ki; subject: CC1(C(c2ccc(C(F)(F)F)c(F)c2)n2nc(CC(F)(F)F)c3c(=O)[nH]c(O)nc32)CC1 (single isomer, unassigned) [Example 248]
Solution: 47 nM

Exercise: Query: Ki; subject: CC(c1ccc(OC(F)(F)F)cc1)n1nc(CF)c2c(=O)[nH]c(O)nc21 (stereo not shown) [Example 36]
Solution: 17 nM

Exercise: Query: Ki; subject: C[C@@H](c1ccc(C(F)(F)F)cc1)n1nc(C(F)F)c2c(=O)[nH]c(N(C)C)nc21 [Example 289]
Solution: 0.25 nM

Exercise: Query: Ki; subject: CC(C)C(c1ccc(C(F)(F)F)cc1)n1nc(C(F)F)c2c(=O)[nH]c(O)nc21 (single isomer, unassigned) [Example 282]
Solution: 59 nM

Exercise: Query: Ki; subject: CC(c1ccc(C(F)(F)F)c(F)c1)n1nc(CO)c2c(=O)[nH]c(N(C)C)nc21 (single isomer, unassigned) [Example 68]
Solution: 7.1 nM

Exercise: Query: Ki; subject: CC(C)c1ccc(C(C(C)C)n2nc(CF)c3c(=O)[nH]c(N(C)C)nc32)cc1 (single isomer, unassigned) [Example 177]
Solution: 0.047 nM

Exercise: Query: Ki; subject: CC(C)C(c1ccc(C(C)(F)F)c(F)c1)n1nc(CO)c2c(=O)[nH]c(N(C)C)nc21 (single isomer, unassigned) [Example 117]
Solution: 0.017 nM

====

biological target: human PDE2A1 (Homo sapiens (Human), UniProt O00408); test: PDE selectivity IMAP FP assay, human PDE2A1; format: biochemical; conditions: Human PDE2; Lab B; read-out: Human PDE2 Ki (nM) Lab B
Below, each entry is listed alongside its reported Ki.
Use nM as the unit, but write only the number.

Solved cases (5 shown):
CCC(c1ccc(C(C)(F)F)cc1)n1nc(CF)c2c(=O)[nH]c(N(C)C)nc21 (single isomer, unassigned) [Example 204] | 1.4
CCC(c1ccc(CC(F)(F)F)cc1)n1nc(CO)c2c(=O)[nH]c(N(C)C)nc21 (single isomer, unassigned) [Example 98] | 1.3
CC(C)C(c1ccc(OC(F)(F)F)cc1)n1nc(CF)c2c(=O)[nH]c(O)nc21 (single isomer, unassigned) [Example 43] | 5.3
CC(C)C(c1ccc(C(F)F)cc1)n1nc(CO)c2c(=O)[nH]c(N(C)C)nc21 (single isomer, unassigned) [Example 90] | 1.1
C[C@@H](c1ccc(C(F)(F)F)cc1)n1nc(CO)c2c(=O)[nH]c(NCCCCl)nc21 | 3.8

Exercise: Query: Ki; subject: CC(c1ccc(C(F)(F)F)cc1)n1nc(CO)c2c(=O)[nH]c(O)nc21 (single isomer, unassigned)
Solution: 24

Exercise: Query: Ki; subject: CC(c1ccc(OC(F)(F)F)c(F)c1)n1nc(CO)c2c(=O)[nH]c(N(C)C)nc21 (single isomer, unassigned) [Example 84]
Solution: 0.68

====

Below, each entry is listed alongside its reported Ki.
biological target: Rhesus PDE2A3 (Macaca mulatta, UniProt B3VTJ2); experiment: PDE2 fluorescence polarization (IMAP FP) assay, rhesus PDE2A3; assay type: biochemical, rhesus macaque; settings: Lab B, read-out: Rhesus PDE2 Ki (nM) Lab B
Sequence (B3VTJ2 1-941): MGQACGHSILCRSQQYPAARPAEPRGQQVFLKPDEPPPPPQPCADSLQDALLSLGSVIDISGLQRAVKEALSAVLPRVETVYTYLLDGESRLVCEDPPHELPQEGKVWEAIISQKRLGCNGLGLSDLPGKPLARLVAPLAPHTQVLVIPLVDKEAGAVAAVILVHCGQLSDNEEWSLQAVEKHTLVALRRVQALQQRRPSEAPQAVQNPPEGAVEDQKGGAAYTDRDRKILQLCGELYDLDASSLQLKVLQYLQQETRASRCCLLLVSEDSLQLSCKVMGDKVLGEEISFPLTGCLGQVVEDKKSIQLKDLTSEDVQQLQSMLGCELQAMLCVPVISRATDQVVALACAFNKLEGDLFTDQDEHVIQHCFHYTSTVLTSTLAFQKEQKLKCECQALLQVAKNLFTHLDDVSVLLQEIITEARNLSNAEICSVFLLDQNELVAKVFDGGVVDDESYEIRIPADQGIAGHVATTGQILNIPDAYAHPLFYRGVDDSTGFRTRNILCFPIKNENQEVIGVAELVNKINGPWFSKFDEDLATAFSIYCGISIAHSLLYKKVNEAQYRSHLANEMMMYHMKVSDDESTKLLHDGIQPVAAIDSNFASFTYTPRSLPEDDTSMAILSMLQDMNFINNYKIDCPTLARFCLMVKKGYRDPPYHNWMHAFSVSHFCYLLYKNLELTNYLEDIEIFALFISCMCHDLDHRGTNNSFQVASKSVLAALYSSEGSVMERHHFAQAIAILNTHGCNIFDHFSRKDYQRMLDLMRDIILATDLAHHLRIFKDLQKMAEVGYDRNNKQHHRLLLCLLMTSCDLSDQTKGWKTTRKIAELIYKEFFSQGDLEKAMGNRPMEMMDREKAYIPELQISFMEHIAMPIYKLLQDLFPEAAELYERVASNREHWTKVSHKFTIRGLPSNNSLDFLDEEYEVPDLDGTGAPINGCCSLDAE
Use nM as the unit, but write only the number.

Exercise: Recorded Ki for CN(C)c1nc2c(c(CF)nn2C(c2ccc(C(F)(F)F)cc2F)C2CC2)c(=O)[nH]1 (single isomer, unassigned) [Example 202] with Rhesus PDE2A3 (Macaca mulatta, UniProt B3VTJ2), please?
Solution: 0.058

Exercise: Recorded Ki for CCC(c1ccc(C(C)(F)F)cc1)n1nc(CO)c2c(=O)[nH]c(N(C)C)nc21 (single isomer, unassigned) with Rhesus PDE2A3 (Macaca mulatta, UniProt B3VTJ2), please?
Solution: 0.14

Exercise: Recorded Ki for CC(C)C(c1ccc(C(F)(F)F)cc1)n1nc(CF)c2c(=O)[nH]c(N(C)C)nc21 (single isomer, unassigned) [Example 162] with Rhesus PDE2A3 (Macaca mulatta, UniProt B3VTJ2), please?
Solution: 0.63

====

molecular target: Rhesus PDE2A3 (Macaca mulatta, UniProt B3VTJ2); test: PDE2 fluorescence polarization (IMAP FP) assay, rhesus PDE2A3; type: biochemical, rhesus macaque; settings: Lab B, read-out: Rhesus PDE2 Ki (nM) Lab B
MEASURED ATTRIBUTE: Ki (nM)
Use nM as the unit, but write only the number.

O=c1[nH]c(O)nc2c1c(CF)nn2C1(c2ccc(C(F)(F)F)cc2)CCC1 | 11
CC(C)(C)C(c1ccc(C(F)(F)F)c(F)c1)n1nc(CO)c2c(=O)[nH]c(O)nc21 (single isomer, unassigned) [Example 25] | 238
C[C@H](c1ccc(C(F)(F)F)c(F)c1)n1nc(CF)c2c(=O)[nH]c(O)nc21 (mixture of isomers) [Example 35] | 209

Here is the next item to consider.
Exercise: Query: Ki; subject: CC(c1ccc(C(C)(F)F)c(F)c1)n1nc(CO)c2c(=O)[nH]c(N(C)C)nc21 (single isomer, unassigned) [Example 106]
Solution: 6.2

====

Target: human PDE2A1 (Homo sapiens (Human), UniProt O00408)
Assay: PDE selectivity IMAP FP assay, human PDE2A1
Type: biochemical
Details: Human PDE2; Lab B; read-out: Human PDE2 Ki (nM) Lab B
Protocol: Selectivity for PDE2, as compared to other PDE families, was assessed using the IMAP® technology. Human PDE10A2 enzyme was prepared from cytosolic fractions of transiently transfected HEK cells. A Labcyte POD 810 (Labcyte, Sunnyvale, Calif.) was used to dispense 200 nL from each well of the titration plate to make eleven copies of the assay plate for each titration, one copy for each PDE enzyme. […]
Below, each entry is listed alongside its reported Ki.
Use nM as the unit, but write only the number.

Solved cases (5 shown):
CC(C)C(c1ccc(OC(F)F)cc1)n1nc(CO)c2c(=O)[nH]c(N(C)C)nc21 (single isomer, unassigned) [Example 120] | 0.21
O=c1[nH]c(O)nc2c1c(CO)nn2C(CF)c1ccc(C(F)(F)F)cc1 (stereo not shown) | 71
CN(C)c1nc2c(c(CF)nn2C(c2ccc(C(F)(F)F)c(F)c2)C2CC2)c(=O)[nH]1 (single isomer, unassigned) [Example 181] | 0.058
CC(C)C(c1ccc(C(C)(C)C)cc1)n1nc(CC(F)(F)F)c2c(=O)[nH]c(O)nc21 (single isomer, unassigned) | 25
Cc1ccc(C(C)n2nc(CCl)c3c(=O)[nH]c(O)nc32)cc1 (stereo not shown) | 28

Exercise: Query: Ki; subject: CC(c1ccc(CC(F)(F)F)cc1)n1nc(CO)c2c(=O)[nH]c(N(C)C)nc21 (single isomer, unassigned) [Example 70]
Solution: 4.1

Exercise: Query: Ki; subject: CC(C)C(c1ccc(C(C)(F)F)cc1)n1nc(CO)c2c(=O)[nH]c(N)nc21 (single isomer, unassigned) [Example 357]
Solution: 19

Exercise: Query: Ki; subject: CC(c1ccc(OC(F)F)c(Cl)c1)n1nc(C(F)(F)F)c2c(=O)[nH]c(O)nc21 (single isomer, unassigned) [Example 325]
Solution: 529

Exercise: Query: Ki; subject: CC(c1ccc(S(F)(F)(F)(F)F)cc1)n1nc(CO)c2c(=O)[nH]c(O)nc21 (single isomer, unassigned)
Solution: 28

Exercise: Query: Ki; subject: CC(C)C(c1ccc(C(C)(F)F)c(F)c1)n1nc(CO)c2c(=O)[nH]c(N(C)C)nc21 (single isomer, unassigned) [Example 116]
Solution: 0.13

Exercise: Query: Ki; subject: CC(c1ccc(OC(F)F)cc1)n1nc(C(F)(F)F)c2c(=O)[nH]c(O)nc21 (single isomer, unassigned) [Example 316]
Solution: 6.1

Exercise: Query: Ki; subject: CCC(c1ccc(CC(F)(F)F)cc1)n1nc(CO)c2c(=O)[nH]c(N(C)C)nc21 (single isomer, unassigned) [Example 99]
Solution: 0.31

Exercise: Query: Ki; subject: CC(c1ccc(C(C)(F)F)c(F)c1)n1nc(CF)c2c(=O)[nH]c(N(C)C)nc21 (single isomer, unassigned) [Example 210]
Solution: 3.3

Ref: patent US10174037B2
